Test: chemical genetic growth profiling, strain panel (AID 1159580);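 also: tested at 20 µM; growth read once vehicle control cultures reached saturation at 30 °C; 1 = growth at the plate median or of vehicle wells; lower values mean less growth of the strain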
Settings: S. cerevisiae deletion strains, growth OD, locus YER167W, strain BCK2, active compounds read low
About 2,000 (36%) of roughly 5,500 compounds were called active. Not shown: some 18% with an inconclusive outcome. Some of the results follow.
observation-type: normalized growth

{"molecule": "S=P(N1CC1)(N1CC1)N1CC1", "observation-type": "normalized growth", "measured": "1.01 (inactive)"}
{"molecule": "COc1c(Cl)ccc(Cl)c1C(=O)O", "observation-type": "normalized growth", "measured": "1.02 (inactive)"}
{"molecule": "CN[C@@H]1[C@H](OC2[C@H](O[C@H]3[C@H](O)[C@@H](O)[C@H](N=C(N)N)[C@@H](O)[C@@H]3N=C(N)N)O[C@@H](C)[C@]2(O)C=O)O[C@@H](CO)[C@H](O)[C@H]1O (stereo partly specified)", "observation-type": "normalized growth", "measured": "1.01 (inactive)"}
{"molecule": "CCCC(CCC)C(=O)O", "observation-type": "normalized growth", "measured": "0.986 (inactive)"}
{"molecule": "O=c1cc(-c2ccccc2)oc2c(O)c(O)ccc12", "observation-type": "normalized growth", "measured": "1 (inactive)"}
{"molecule": "Cc1cc(=O)oc2c(O)c(O)ccc12", "observation-type": "normalized growth", "measured": "1.01 (inactive)"}
{"molecule": "O=c1cc(-c2ccccc2)oc2cc(O)cc(O)c12", "observation-type": "normalized growth", "measured": "0.928 (inactive)"}
{"molecule": "OC1=Cc2c(O)cc(O)cc2OC1(O)c1ccc(O)c(O)c1 (stereo unspecified)", "observation-type": "normalized growth", "measured": "1.01 (inactive)"}
{"molecule": "COc1cc(S(C)=O)ccc1-c1nc2ncccc2[nH]1 (stereo unspecified)", "observation-type": "normalized growth", "measured": "1.01 (inactive)"}
{"molecule": "Cc1nc2ccccn2c(=O)c1CCN1CCC(C(=O)c2ccc(F)cc2)CC1", "observation-type": "normalized growth", "measured": "1.01 (inactive)"}
{"molecule": "COc1cc(OC)c(OC)cc1C=O", "observation-type": "normalized growth", "measured": "1.02 (inactive)"}

====

Assay: chemical genetic growth profiling, strain panel (AID 1159580);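 also: tested at 20 µM; growth read once vehicle control cultures reached saturation at 30 °C; 1 = growth at the plate median or of vehicle wells; lower values mean less growth of the strain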
Conditions: S. cerevisiae deletion strains, growth OD, locus YAL013W, strain DEP1, active compounds read low
The campaign covered roughly 5,500 compounds. About 2,000 (36%) were called active. Not shown: some 18% with an inconclusive outcome. This is one part of the list.
Measured normalized growth, listed per entry for reference.
observation-type: normalized growth

{"compound": "Cc1cc(CN2CC(C)OC(C)C2)cc(C)c1O (configuration not stated)", "measured": 1.01}
{"compound": "COc1ccc(C(=O)C2CCNCC2)cc1", "measured": 0.991}
{"compound": "O=C(Nc1ccccc1)NC1CCCC1", "measured": 1.02}
{"compound": "Cc1[nH]c(=O)c(C#N)cc1-c1ccncc1", "measured": 1.02}
{"compound": "Cc1cccc(Nc2ccncc2S(=O)(=O)NC(=O)NC(C)C)c1", "measured": 1.01}
{"compound": "CCc1ccccc1NC(C)=O", "measured": 1.04}
{"compound": "CC(=O)OCC(=O)[C@@]1(O)[C@H](OC(C)=O)CC2C3CCC4=CC(=O)C=C[C@]4(C)[C@@]3(F)[C@@H](O)C[C@@]21C (some centres not stated)", "measured": 0.993}
{"compound": "O=C(NCc1nc(-c2ccc(C(F)(F)F)cc2)no1)Nc1ccc(F)cc1F", "measured": 1.01}
{"compound": "CCCCC[C@H](CC(=O)NO)C(=O)N[C@H](C(=O)N1CCC[C@H]1CO)C(C)C", "measured": 0.979}
{"compound": "O=C(O)CC(CC(=O)Nc1ccc(I)cc1F)c1ccc(C(F)(F)F)cc1 (configuration not stated)", "measured": 0.99}
{"compound": "FC(F)(F)c1cc(-n2c(CCc3nc(-c4ccc(Cl)cc4)no3)n[nH]c2=S)cc(C(F)(F)F)c1", "measured": 0.996}
{"compound": "O=C1CSC(c2ccc(Cl)c(Cl)c2)N1c1ccc(F)cc1 (configuration not stated)", "measured": 0.988}
